Reference for the values: the supplement of paper PMC9262897

- System: E. coli TESEC Mtb Alr
- measurement protocol: growth (OD600 after 10 h); higher = more growth (less inhibition)
- particulars: arabinose 100 nM; compound 0.1 mM; raw OD600 reference: median of DMSO wells 0.413, cell-free background 0.052
Some compounds, each annotated with its measured growth.
No unit in the answer, only the number.

>>> print(df.to_string())
                                   compound  measured
0  CCCC(C)C1(CC)C(=O)NC(=O)NC1=O (centres undefined)       0.4
1  CC(C)c1c(CN(C)C(C)Cc2ccccc2)n(C)n(-c2ccccc2)c1=O (centres undefined)     0.406
2  Cc1cc(C(C#N)c2ccc(Cl)cc2)c(Cl)cc1NC(=O)c1cc(I)cc(I)c1O (centres undefined)     0.137

// switching to the query compound
QUERY: Query: growth; subject: C[C@]12Cc3c[nH]nc3C[C@@H]1CC[C@@H]1[C@@H]2CC[C@@]2(C)[C@H]1CC[C@]2(C)O
RESULT: 0.409

----------
- Tested on: E. coli TESEC Mtb Alr
- measurement protocol: growth (OD600 after 10 h); higher = more growth (less inhibition)
- particulars: arabinose 10000000 nM; compound 0.1 mM; raw OD600 reference: median of DMSO wells 0.146, cell-free background 0.041
Where a name gives a salt, the structure may show the parent alone.
Some compounds, each annotated with its measured growth.
No unit in the answer, only the number.

See these solved cases before continuing.
                                   compound           assay_system  recorded_endpoint  measured
0  C[C@@H]1O[C@@H](O[C@@H]2C=C3CC[C@@H]4[C@H](CC[C@]5(C)[C@@H](c6ccc(=O)oc6)CC[C@]45O)[C@@]3(C)CC2)[C@H](O)[C@H](O)[C@H]1O  E. coli TESEC Mtb Alr             growth     0.134
1  C=CCN1CC[C@]23c4c5ccc(O)c4O[C@H]2C(=O)CC[C@@]3(O)[C@H]1C5 [Naloxone hydrochloride]  E. coli TESEC Mtb Alr             growth     0.137
2  C[C@]12CC[C@H](O)C[C@H]1CC[C@@H]1[C@@H]2CC[C@]2(C)[C@@H](C3=CC(=O)OC3)CC[C@]12O  E. coli TESEC Mtb Alr             growth     0.126
3  CC(C)CC(N(C)C)C1(c2ccc(Cl)cc2)CCC1 (centres undefined) [Sibutramine HCl]  E. coli TESEC Mtb Alr             growth     0.137
4  CC(NC(C)(C)C)C(=O)c1cccc(Cl)c1 (centres undefined) [Bupropion hydrochloride]  E. coli TESEC Mtb Alr             growth     0.136
5  C[N+]12CCC(CC1)C(OC(=O)C(O)(c1ccccc1)c1ccccc1)C2 (centres undefined) [Clidinium bromide]  E. coli TESEC Mtb Alr             growth     0.132
6  CCC(=O)O[C@@](Cc1ccccc1)(c1ccccc1)[C@@H](C)CN(C)C [Levopropoxyphene napsylate]  E. coli TESEC Mtb Alr             growth      0.15
7  CN1CCC2(C)c3cc(O)ccc3N(C)C12 (single isomer, unassigned; (-)) [(-)-Eseroline fumarate salt]  E. coli TESEC Mtb Alr             growth      0.19

// switching to the query compound
QUERY: Query: growth; subject: CNC(C)(C)Cc1ccccc1 [Mephentermine hemisulfate]
RESULT: 0.138
